Measured values drawn from ChEMBL document CHEMBL1138524 for this set.

- experimentalProtocol: Cytotoxicity against human HuH7 cells
- Type: cell-based, Huh-7
measuredProperty: CC50 (µM)

• CC(C)(c1ccc(O)cc1)c1ccc(C(C)(c2ccc(O)cc2)c2ccc(O)cc2)cc1 = 12.7
• CC(C)(c1ccc(C(C)(c2ccc(O)c(Br)c2)c2ccc(O)c(Br)c2)cc1)c1ccc(O)c(Br)c1 = 10.5
• Cc1cc([C@@](O)(c2ccc(Nc3ccccc3)cc2)c2ccc(Nc3ccc(S(=O)(=O)[O-])cc3)cc2)ccc1N.[Na+] = 0.96

----------
- Tested on: Hepacivirus hominis
- experimentalProtocol: Inhibition of HCV NS3/4A helicase assessed as blockade of ssRNA formation form dsRNA at 100 uM by PAGE
Calls of active or inactive are those of the source. The rule behind the calls is not given here.
measuredProperty: Activity

* CC(C)(c1ccc(O)cc1)c1ccc(C(C)(c2ccc(O)cc2)c2ccc(O)cc2)cc1 | Active
* O=S(=O)(O)c1ccc(N=C2C=CC(=C(c3ccc(Nc4cccc(S(=O)(=O)O)c4)cc3)c3ccc(Nc4cccc(S(=O)(=O)O)c4)cc3)C=C2)cc1 | Active
* O=C(O)c1cc(Nc2ccc(C(Cl)(c3ccccc3)c3ccc(Nc4ccc(Cl)c(C(=O)O)c4)cc3)cc2)ccc1Cl | Active

----------
Reported IC50 values for a set of compounds
- experimentalProtocol: Inhibition of HCV NS3/4A helicase by FRET assay
- Parameters: species or system Hepacivirus hominis
measuredProperty: IC50 (µM)

- CC(C)(c1ccc(O)cc1)c1ccc(C(C)(c2ccc(O)cc2)c2ccc(O)cc2)cc1: 13.9
- CC(C)(c1ccc(C(C)(c2ccc(O)c(Br)c2)c2ccc(O)c(Br)c2)cc1)c1ccc(O)c(Br)c1: 10.1
- Cc1cc([C@@](O)(c2ccc(Nc3ccccc3)cc2)c2ccc(Nc3ccc(S(=O)(=O)[O-])cc3)cc2)ccc1N.[Na+]: 12.6
- CC(C)(c1ccc(O)cc1)c1ccc(C(C)(C)c2ccc(O)cc2)cc1: 60.7
- O=C(O)c1cc(Nc2ccc(C(Cl)(c3ccccc3)c3ccc(Nc4ccc(Cl)c(C(=O)O)c4)cc3)cc2)ccc1Cl: 29.7
- O=S(=O)(O)c1ccc(N=C2C=CC(=C(c3ccc(Nc4cccc(S(=O)(=O)O)c4)cc3)c3ccc(Nc4cccc(S(=O)(=O)O)c4)cc3)C=C2)cc1: 40

----------
- Tested on: Hepacivirus hominis
- experimentalProtocol: Inhibition of HCV NS3/4A helicase at 100 uM by FRET assay
measuredProperty: inhibition (%)

* CC(c1ccccc1)(c1ccc(O)cc1)c1ccc(O)cc1 | 43
* CC(c1ccc(O)cc1)(c1ccc(O)cc1)c1ccc(O)cc1 | 39
* Nc1ccc(C(c2ccc(N)cc2)c2ccc(N)cc2)cc1 | 30
* CC(c1ccccc1)(c1ccc(Oc2ccc([N+](=O)[O-])cc2)cc1)c1ccc(Oc2ccc([N+](=O)[O-])cc2)cc1 | 0
* COc1ccc(C(C)(C)c2ccc(C(C)(c3ccc(OC)cc3)c3ccc(OC)cc3)cc2)cc1 | 15
* COc1ccc(-c2cc(-c3ccc(N(C)C)cc3)nc(NS(=O)(=O)c3ccc(N)cc3)n2)cc1 | 46

----------
Reported IC50 values for a set of molecules
- experimentalProtocol: Inhibition of ATPase activity of HCV NS3/4A helicase by autoradiography
- Design: species or system Hepacivirus hominis
measuredProperty: IC50 (µM)

• O=S(=O)(O)c1ccc(N=C2C=CC(=C(c3ccc(Nc4cccc(S(=O)(=O)O)c4)cc3)c3ccc(Nc4cccc(S(=O)(=O)O)c4)cc3)C=C2)cc1 = 23.8
• O=C(O)c1cc(Nc2ccc(C(Cl)(c3ccccc3)c3ccc(Nc4ccc(Cl)c(C(=O)O)c4)cc3)cc2)ccc1Cl = 25.1
• CC(C)(c1ccc(O)cc1)c1ccc(C(C)(c2ccc(O)cc2)c2ccc(O)cc2)cc1 = 25.9
